molecular target: MATE1 (Homo sapiens); experiment: MATE1 uptake transporter inhibition in MDCKII or HEK293 cells; details: MATE1; substrate Metformin (10 μM)
Sequence (Q96FL8 whole entry): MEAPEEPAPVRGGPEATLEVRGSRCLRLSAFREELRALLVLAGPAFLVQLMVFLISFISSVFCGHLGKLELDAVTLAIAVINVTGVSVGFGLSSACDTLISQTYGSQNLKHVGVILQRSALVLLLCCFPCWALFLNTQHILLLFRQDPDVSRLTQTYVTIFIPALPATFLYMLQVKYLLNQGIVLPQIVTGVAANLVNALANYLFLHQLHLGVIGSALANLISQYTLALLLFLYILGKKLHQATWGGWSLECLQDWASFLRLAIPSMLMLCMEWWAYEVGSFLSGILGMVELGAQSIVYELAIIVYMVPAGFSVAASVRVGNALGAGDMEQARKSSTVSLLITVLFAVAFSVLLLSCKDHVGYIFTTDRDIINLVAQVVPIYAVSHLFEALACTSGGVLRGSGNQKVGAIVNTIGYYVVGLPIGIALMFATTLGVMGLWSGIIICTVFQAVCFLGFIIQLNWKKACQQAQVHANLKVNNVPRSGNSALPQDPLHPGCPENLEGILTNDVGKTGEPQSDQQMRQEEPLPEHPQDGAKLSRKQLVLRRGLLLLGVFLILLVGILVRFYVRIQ
pIC50: −log10 of the molar value.

[
  {
    "Smiles text": "COc1cc(O[C@H]2C(C)(C)[C@H](NC(=O)c3ccc(N4CCC(CN5CCN(c6ccc(C(=O)N[C@H]7CCC(=O)NC7=O)c(F)c6)CC5)CC4)cc3)C2(C)C)ccc1C#N",
    "Tested on": "MATE1 (Homo sapiens)",
    "pIC50": 5.52
  }
]

----------
Biological target: OATP1B1 (Homo sapiens)
Sequence (Q9Y6L6 whole entry): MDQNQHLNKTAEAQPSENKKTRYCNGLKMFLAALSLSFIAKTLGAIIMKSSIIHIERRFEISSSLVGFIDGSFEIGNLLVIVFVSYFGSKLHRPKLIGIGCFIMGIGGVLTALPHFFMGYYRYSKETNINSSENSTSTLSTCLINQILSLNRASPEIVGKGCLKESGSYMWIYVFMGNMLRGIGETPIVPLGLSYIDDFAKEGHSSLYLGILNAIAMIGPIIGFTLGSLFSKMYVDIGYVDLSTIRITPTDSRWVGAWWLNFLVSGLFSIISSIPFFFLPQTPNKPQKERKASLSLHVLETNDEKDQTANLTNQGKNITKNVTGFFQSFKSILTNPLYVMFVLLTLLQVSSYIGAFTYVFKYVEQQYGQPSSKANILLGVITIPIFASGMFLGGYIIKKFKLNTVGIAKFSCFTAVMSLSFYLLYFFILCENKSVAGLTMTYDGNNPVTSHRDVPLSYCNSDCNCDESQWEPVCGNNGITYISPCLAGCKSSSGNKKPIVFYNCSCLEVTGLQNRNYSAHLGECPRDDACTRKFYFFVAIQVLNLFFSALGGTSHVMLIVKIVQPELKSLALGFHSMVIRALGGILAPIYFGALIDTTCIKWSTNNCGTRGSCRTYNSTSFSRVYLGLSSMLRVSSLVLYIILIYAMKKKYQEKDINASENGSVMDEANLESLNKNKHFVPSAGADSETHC
Test: OATP1B1 uptake transporter inhibition in MDCKII or HEK293 cells
Conditions: substrate Rosuvastatin (1 μM)
Description: In addition, the inhibition potential against efflux transporters (P-glycoprotein (Pgp) and breast cancer resistance protein (BCRP)) and uptake transporters (MATE1, MATE2-K, OATP1B1, OATP1B3, OAT1, OAT3, and OCT2) was assessed using single transporter over-expressed cell monolayers (MDCK II or HEK293) or inside-out vesicles. […]
Attribute measured: IC50

[
  {
    "Smiles text": "COc1cc(O[C@H]2C(C)(C)[C@H](NC(=O)c3ccc(N4CCC(CN5CCN(c6ccc(C(=O)N[C@H]7CCC(=O)NC7=O)c(F)c6)CC5)CC4)cc3)C2(C)C)ccc1C#N",
    "Attribute measured": "IC50",
    "Result": "> 3.75 µM"
  }
]

----------
biological target: Pgp (Homo sapiens); assay: Pgp inhibition in inside-out membrane vesicles from HEK293; type: in vitro ADME; design: expressed in transfected cells; host or cells: HEK293 (inside-out membrane vesicles); settings: human, probe NMQ (1 μM), Vesicles, substrate NMQ (1 μM), read-out: Maximal % Inhibition
Sequence (P08183 whole entry): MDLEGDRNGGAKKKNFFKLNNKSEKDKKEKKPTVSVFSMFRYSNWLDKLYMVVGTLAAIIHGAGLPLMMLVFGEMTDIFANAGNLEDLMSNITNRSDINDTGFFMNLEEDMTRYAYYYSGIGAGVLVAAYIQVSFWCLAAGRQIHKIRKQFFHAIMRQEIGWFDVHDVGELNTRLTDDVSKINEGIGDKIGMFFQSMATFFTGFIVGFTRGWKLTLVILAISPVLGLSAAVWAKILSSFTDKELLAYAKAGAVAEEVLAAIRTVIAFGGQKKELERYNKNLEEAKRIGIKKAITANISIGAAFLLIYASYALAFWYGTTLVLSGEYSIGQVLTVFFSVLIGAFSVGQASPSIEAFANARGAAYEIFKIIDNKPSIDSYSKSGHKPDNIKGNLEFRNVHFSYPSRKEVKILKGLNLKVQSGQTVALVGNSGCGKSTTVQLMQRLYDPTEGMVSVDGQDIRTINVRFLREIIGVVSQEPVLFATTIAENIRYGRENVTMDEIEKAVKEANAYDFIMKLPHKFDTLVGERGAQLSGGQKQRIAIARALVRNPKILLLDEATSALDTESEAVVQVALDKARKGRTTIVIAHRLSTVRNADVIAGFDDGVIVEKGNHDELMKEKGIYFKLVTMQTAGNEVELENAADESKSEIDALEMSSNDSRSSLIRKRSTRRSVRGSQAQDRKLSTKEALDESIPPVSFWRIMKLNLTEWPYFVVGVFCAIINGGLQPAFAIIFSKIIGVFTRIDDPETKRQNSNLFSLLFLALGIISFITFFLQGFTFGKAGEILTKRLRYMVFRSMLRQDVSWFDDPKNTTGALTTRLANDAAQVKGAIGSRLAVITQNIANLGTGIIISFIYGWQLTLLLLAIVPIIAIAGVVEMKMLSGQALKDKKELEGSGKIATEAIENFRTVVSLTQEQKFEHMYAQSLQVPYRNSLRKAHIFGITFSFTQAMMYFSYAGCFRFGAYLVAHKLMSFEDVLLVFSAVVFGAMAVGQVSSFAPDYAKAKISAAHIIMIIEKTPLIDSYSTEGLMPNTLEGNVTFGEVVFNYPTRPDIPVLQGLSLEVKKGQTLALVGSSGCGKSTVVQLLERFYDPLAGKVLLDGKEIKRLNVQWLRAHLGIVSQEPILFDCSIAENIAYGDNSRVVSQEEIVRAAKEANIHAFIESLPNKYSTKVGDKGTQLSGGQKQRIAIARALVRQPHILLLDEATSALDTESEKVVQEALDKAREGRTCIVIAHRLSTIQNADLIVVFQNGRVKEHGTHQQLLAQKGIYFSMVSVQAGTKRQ

[
  {
    "Molecule": "COc1cc(O[C@H]2C(C)(C)[C@H](NC(=O)c3ccc(N4CCC(CN5CCN(c6ccc(C(=O)N[C@H]7CCC(=O)NC7=O)c(F)c6)CC5)CC4)cc3)C2(C)C)ccc1C#N [Compound A]",
    "inhibition at 1 µM (%)": 87
  }
]

----------
target: CYP2C9 (Homo sapiens, UniProt P11712); construct: evaluated in pooled human liver microsomes (HLM); from tissue; host or cells: pooled human liver microsomes; assay: Direct and time-dependent CYP2C9 inhibition in pooled human liver microsomes; type: in vitro ADME; conditions: pooled HLM; substrate Diclofenac 5 μM; read-out: IC50, No Pre-incubation
Sequence (P11712 whole entry): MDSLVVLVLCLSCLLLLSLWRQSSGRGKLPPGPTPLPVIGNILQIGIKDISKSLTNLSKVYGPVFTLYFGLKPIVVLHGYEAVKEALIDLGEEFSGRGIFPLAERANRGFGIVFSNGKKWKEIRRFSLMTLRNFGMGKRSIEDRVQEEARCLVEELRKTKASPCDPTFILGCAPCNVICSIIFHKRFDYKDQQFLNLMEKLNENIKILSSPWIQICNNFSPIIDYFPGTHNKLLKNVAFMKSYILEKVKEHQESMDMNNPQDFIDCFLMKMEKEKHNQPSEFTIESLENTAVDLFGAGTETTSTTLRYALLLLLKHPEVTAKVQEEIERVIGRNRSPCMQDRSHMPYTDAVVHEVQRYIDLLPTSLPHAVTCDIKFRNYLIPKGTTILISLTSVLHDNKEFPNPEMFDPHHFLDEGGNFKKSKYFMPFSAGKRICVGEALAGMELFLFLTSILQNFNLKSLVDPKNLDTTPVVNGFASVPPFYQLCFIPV
Attribute measured: IC50

[
  {
    "Molecule": "COc1cc(O[C@H]2C(C)(C)[C@H](NC(=O)c3ccc(N4CCC(CN5CCN(c6ccc(C(=O)N[C@H]7CCC(=O)NC7=O)c(F)c6)CC5)CC4)cc3)C2(C)C)ccc1C#N [Compound A]",
    "Attribute measured": "IC50",
    "Result": "> 15 µM"
  }
]

----------
Molecular target: CYP1A2 (Homo sapiens)
Construct: evaluated in pooled human liver microsomes (HLM); from tissue; host or cells: pooled human liver microsomes
Sequence (P05177 1-516): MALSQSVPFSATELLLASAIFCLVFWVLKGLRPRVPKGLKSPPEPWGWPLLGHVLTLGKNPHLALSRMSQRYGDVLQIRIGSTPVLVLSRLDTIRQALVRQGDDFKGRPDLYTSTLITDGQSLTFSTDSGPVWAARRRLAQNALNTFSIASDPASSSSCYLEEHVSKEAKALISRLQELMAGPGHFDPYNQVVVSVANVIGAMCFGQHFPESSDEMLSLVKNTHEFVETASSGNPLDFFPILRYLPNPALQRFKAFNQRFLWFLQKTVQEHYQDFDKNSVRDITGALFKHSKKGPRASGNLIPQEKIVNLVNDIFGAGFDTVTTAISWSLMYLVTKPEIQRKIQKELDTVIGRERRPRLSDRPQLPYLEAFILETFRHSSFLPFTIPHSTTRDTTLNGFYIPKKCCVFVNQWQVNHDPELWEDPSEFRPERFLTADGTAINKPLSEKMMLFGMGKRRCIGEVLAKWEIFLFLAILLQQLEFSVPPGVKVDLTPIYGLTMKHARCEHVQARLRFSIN
Test: Direct and time-dependent CYP1A2 inhibition in pooled human liver microsomes
Format: in vitro ADME
Settings: pooled HLM; substrate Phenacetin 50 μM; read-out: IC50, 30 min Pre-incubation
Attribute measured: IC50

[
  {
    "Molecule": "COc1cc(O[C@H]2C(C)(C)[C@H](NC(=O)c3ccc(N4CCC(CN5CCN(c6ccc(C(=O)N[C@H]7CCC(=O)NC7=O)c(F)c6)CC5)CC4)cc3)C2(C)C)ccc1C#N [Compound A]",
    "Tested on": "CYP1A2 (Homo sapiens)",
    "Result": "> 15 µM"
  }
]

----------
biological target: CYP2C19 (Homo sapiens, UniProt P33261); construct: evaluated in pooled human liver microsomes (HLM); from tissue; host or cells: pooled human liver microsomes; test: Direct and time-dependent CYP2C19 inhibition in pooled human liver microsomes; assay type: in vitro ADME; conditions: pooled HLM; substrate S-Mephenytoin 20 μM; read-out: IC50, No Pre-incubation
Sequence (P33261 whole entry): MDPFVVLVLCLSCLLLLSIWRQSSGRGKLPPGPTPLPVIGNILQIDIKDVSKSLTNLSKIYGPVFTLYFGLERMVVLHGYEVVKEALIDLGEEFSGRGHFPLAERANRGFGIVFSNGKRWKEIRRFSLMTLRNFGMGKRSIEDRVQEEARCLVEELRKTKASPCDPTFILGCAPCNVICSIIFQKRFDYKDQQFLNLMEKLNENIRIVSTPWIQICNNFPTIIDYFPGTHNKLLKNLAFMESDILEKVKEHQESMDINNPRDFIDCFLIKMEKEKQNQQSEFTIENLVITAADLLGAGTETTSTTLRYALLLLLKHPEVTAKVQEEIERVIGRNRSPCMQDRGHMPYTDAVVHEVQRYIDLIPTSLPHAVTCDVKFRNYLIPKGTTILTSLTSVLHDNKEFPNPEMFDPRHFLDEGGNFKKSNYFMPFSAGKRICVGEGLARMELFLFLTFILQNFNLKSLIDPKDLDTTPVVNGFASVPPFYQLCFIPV
pIC50: −log10 of the molar value.
Attribute measured: pIC50

[
  {
    "Smiles text": "COc1cc(O[C@H]2C(C)(C)[C@H](NC(=O)c3ccc(N4CCC(CN5CCN(c6ccc(C(=O)N[C@H]7CCC(=O)NC7=O)c(F)c6)CC5)CC4)cc3)C2(C)C)ccc1C#N",
    "Attribute measured": "pIC50",
    "Result": "< 4.82"
  }
]

----------
Target: CYP2C8 (Homo sapiens)
Construct: evaluated in pooled human liver microsomes (HLM); from tissue; host or cells: pooled human liver microsomes
Sequence (P10632 1-490): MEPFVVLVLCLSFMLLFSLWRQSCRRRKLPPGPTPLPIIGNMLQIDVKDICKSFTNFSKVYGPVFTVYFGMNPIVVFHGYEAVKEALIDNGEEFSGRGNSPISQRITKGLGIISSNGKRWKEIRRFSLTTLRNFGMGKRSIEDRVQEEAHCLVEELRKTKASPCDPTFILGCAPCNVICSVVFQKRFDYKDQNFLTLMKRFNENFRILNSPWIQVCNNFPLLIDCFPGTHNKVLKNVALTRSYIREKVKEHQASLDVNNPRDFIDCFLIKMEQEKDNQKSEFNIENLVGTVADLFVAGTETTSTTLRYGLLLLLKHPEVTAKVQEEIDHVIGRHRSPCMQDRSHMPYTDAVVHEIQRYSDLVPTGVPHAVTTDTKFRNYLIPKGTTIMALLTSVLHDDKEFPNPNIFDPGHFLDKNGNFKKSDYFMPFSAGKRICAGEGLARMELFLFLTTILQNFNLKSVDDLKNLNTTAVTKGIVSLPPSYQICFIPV
Assay: Direct and time-dependent CYP2C8 inhibition in pooled human liver microsomes
Assay type: in vitro ADME
Details: pooled HLM; substrate Amodiaquine 2 μM; read-out: IC50, No Pre-incubation
pIC50: −log10 of the molar value.

[
  {
    "Compound": "COc1cc(O[C@H]2C(C)(C)[C@H](NC(=O)c3ccc(N4CCC(CN5CCN(c6ccc(C(=O)N[C@H]7CCC(=O)NC7=O)c(F)c6)CC5)CC4)cc3)C2(C)C)ccc1C#N [Compound A]",
    "Tested on": "CYP2C8 (Homo sapiens)",
    "pIC50": "< 4.82"
  }
]

----------
Molecular target: CYP1A2 (Homo sapiens)
Construct: evaluated in pooled human liver microsomes (HLM); from tissue; host or cells: pooled human liver microsomes
Sequence (P05177 1-516): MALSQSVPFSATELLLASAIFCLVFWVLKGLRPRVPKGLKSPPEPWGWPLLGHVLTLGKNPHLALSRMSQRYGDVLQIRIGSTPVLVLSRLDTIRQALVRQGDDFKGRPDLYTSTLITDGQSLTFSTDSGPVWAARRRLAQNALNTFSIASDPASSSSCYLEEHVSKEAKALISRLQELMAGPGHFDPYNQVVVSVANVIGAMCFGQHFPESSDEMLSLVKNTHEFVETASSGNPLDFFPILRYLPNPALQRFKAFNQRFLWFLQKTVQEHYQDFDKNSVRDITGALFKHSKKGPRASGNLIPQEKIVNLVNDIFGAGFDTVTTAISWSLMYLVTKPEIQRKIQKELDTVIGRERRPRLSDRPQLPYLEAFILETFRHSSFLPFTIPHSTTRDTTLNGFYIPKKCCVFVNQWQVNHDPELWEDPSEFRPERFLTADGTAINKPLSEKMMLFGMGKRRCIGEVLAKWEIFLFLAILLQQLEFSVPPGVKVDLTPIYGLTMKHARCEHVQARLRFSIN
Experiment: Direct and time-dependent CYP1A2 inhibition in pooled human liver microsomes
Type: in vitro ADME
Conditions: pooled HLM; substrate Phenacetin 50 μM; read-out: IC50, No Pre-incubation
pIC50: −log10 of the molar value.

[
  {
    "Smiles text": "COc1cc(O[C@H]2C(C)(C)[C@H](NC(=O)c3ccc(N4CCC(CN5CCN(c6ccc(C(=O)N[C@H]7CCC(=O)NC7=O)c(F)c6)CC5)CC4)cc3)C2(C)C)ccc1C#N",
    "pIC50": "< 4.82"
  }
]
